- experimental system: Protein kinase C, PKC; classical (Rattus norvegicus, UniProt P05696+P68403+P63319)
- test: Inhibition of protein kinase C was evaluated as Inhibitory concentration
- Type: protein assay
Recorded IC50 determines the label; the label ranges are low-valued (below 10 nM), mid-valued (10 nM to below 80 nM), high-valued (80 nM or more)

Illustrative cases are given below, each with its answer.
| compound | class label |
| --- | --- |
| Cn1cc(C2=C(c3c4n(c5ccccc35)CCC(CN)C4)C(=O)NC2=O)c2ccccc21 (centres undefined) | low-valued |
| Cn1cc(C2=C(c3c4n(c5ccccc35)CCCC(CN)C4)C(=O)NC2=O)c2ccccc21 (centres undefined) | high-valued |
| Cn1cc(C2=C(c3c4n(c5ccccc35)CCC(CCN)C4)C(=O)NC2=O)c2ccccc21 (centres undefined) | mid-valued |
| Cn1cc(C2=C(c3c4n(c5ccccc35)CCC(CN)CC4)C(=O)NC2=O)c2ccccc21 (centres undefined) | mid-valued |
| Cn1cc(C2=C(c3c4n(c5ccccc35)CCC(N)CC4)C(=O)NC2=O)c2ccccc21 (centres undefined) | high-valued |
| Cn1cc(C2=C(c3cn(CCCN)c4ccccc34)C(=O)NC2=O)c2ccccc21 | mid-valued |
| Cn1cc(C2=C(c3c4n(c5ccccc35)CC[C@H](CN)C4)C(=O)NC2=O)c2ccccc21 | low-valued |

Req: Please let me know in which category the item Cn1cc(C2=C(c3c4n(c5ccccc35)CC(CN)CC4)C(=O)NC2=O)c2ccccc21 (centres undefined) belongs.
Resp: mid-valued
